- TEST_SYSTEM: T1, recombinant human IL-27 (human, UniProt Q14213 21-229; Q8NEV9 29-243)
- T1 construct: Bought from R&D Systems (Cat. 2526-IL); also called hIL-27; rhIL-27
- T1 sequence 1: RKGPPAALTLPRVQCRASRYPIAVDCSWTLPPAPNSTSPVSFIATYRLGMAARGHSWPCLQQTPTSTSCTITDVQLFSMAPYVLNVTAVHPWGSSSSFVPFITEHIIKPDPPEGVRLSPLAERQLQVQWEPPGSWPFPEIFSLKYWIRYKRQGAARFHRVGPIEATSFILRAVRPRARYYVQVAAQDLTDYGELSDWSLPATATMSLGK
- T1 sequence 2: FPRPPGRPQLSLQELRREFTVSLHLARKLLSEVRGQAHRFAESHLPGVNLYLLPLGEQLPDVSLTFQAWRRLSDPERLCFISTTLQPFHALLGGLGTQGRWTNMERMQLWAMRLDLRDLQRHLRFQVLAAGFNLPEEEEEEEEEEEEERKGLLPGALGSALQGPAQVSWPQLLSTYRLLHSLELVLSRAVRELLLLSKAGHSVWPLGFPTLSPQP
- ASSAY_PROCEDURE: SPR, hIL-27 on CM5 chip, bivalent analyte model (ka1)
# key: entry, value: kon
PROPERTY: kon (M⁻¹ s⁻¹)

Ab7.9 (antibody, human IgG1, kappa, V domains shown, human IgG1/kappa) VH: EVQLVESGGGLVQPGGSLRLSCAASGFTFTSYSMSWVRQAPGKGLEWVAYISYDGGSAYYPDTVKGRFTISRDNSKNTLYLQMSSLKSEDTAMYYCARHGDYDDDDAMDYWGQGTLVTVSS VL: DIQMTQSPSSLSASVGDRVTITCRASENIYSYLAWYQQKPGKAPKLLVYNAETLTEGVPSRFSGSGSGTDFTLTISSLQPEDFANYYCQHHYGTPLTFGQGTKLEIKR    590000
Ab7.8 (antibody, human IgG1, kappa, V domains shown, human IgG1/kappa) VH: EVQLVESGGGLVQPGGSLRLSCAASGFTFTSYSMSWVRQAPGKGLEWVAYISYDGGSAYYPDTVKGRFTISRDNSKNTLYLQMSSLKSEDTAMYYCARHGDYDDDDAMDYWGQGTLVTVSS VL: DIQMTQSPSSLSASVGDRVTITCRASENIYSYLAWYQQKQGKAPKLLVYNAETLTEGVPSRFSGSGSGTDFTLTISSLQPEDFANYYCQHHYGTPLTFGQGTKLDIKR    580000
Ab7.16 (antibody, human IgG1, kappa, V domains shown, human IgG1/kappa) VH: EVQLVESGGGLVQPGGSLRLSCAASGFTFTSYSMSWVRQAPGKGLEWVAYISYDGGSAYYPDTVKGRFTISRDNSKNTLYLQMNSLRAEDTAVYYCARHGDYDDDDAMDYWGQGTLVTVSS VL: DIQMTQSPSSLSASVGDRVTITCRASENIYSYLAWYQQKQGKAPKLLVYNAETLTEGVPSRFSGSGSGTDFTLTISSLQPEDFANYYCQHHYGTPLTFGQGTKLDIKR    570000
Ab7.13 (antibody, human IgG1, kappa, V domains shown, human IgG1/kappa) VH: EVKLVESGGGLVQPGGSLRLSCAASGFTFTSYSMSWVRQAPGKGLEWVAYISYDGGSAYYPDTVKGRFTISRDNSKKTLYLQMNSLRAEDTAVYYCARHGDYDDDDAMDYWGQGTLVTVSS VL: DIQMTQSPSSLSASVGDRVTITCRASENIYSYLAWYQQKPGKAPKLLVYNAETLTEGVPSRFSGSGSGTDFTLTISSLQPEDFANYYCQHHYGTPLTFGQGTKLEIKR    740000
Ab7.12 (antibody, human IgG1, kappa, V domains shown, human IgG1/kappa) VH: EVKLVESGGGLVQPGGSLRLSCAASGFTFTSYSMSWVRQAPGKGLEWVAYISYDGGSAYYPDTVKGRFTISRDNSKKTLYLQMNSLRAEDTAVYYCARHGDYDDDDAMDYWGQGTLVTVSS VL: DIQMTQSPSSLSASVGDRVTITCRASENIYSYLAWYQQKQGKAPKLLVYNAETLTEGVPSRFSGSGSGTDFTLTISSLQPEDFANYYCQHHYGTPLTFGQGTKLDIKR    750000
